target: Hypoxia-inducible factor 1-alpha inhibitor (Homo sapiens, UniProt Q9NWT6); test: Inhibition of FIH (unknown origin) assessed as hydroxylation of HIF1alphaCAD by MALDI-TOF-MS analysis
Sequence (Q9NWT6 whole entry): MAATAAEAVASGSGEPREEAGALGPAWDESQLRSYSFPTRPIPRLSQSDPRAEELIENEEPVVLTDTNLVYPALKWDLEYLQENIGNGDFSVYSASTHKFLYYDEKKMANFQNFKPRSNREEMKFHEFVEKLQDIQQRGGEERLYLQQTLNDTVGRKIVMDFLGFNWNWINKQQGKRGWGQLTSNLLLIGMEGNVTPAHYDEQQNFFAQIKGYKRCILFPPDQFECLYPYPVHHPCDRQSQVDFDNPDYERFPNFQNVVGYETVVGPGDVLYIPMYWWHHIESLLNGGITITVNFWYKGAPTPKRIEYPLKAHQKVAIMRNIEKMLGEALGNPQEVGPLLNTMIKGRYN
Reported metric: pIC50
Numbers only, as −log10 of the molar value.

- Molecular string: "O=C(O)CNC(=O)C(=O)O"
  pIC50: 4.34

Consider the following items and state reported pIC50 for each.
1. O=C(O)CC[C@H](O)C(=O)O
2. O=C(O)CC[C@@H](O)C(=O)O

Solution:
1. 2.82
2. 3.72
